# tgt: human muscarinic M2 receptor (Homo sapiens)
# Sequence (P08172 whole entry): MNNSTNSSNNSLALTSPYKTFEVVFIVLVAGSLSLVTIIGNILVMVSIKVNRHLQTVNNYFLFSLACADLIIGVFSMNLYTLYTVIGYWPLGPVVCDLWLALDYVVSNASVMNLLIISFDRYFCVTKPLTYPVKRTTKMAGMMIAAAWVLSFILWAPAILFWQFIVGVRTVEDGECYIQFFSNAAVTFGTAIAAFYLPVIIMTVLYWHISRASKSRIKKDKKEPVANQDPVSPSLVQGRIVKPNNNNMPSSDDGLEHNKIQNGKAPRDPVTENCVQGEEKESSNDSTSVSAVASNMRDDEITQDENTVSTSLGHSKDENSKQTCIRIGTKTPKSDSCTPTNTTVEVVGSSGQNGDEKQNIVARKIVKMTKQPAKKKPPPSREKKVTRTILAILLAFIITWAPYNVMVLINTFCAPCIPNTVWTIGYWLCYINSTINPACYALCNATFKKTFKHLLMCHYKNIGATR
# assay remarks: Phospho-ERK1/2 assay, muscarinic M2
# Assay type: cell-based
# conditions: CHO, read-out: % Emax cf. ACh (M2)
experimental endpoint: Emax (%)

>>> measured_result("CCOC(=O)N1CCCC(N2CCC(F)(C(=O)NCC3CC3)CC2)CC1 (stereo not drawn)")
9
>>> measured_result("CCOC(=O)N1CCCC(N2CCC(C(=O)NC(C)(C)C)CC2)CC1 (stereo not drawn)")
2

P: CCOC(=O)N1CCCC(N2CCC(F)(C(=O)NCC(C)C)CC2)CC1 (stereo not drawn)
Q: CCOC(=O)N1CCCC(N2CCC(C)(C(=O)NCC(C)C)CC2)CC1 (stereo not drawn)
R: CCOC(=O)N1CCCC(N2CCC(C(=O)NCC(C)C3CC3)CC2)CC1 (stereo not drawn)
Arrange items by their Emax values in increasing order. Dear reader, please state the labels in the requested order.
R, Q, P
(R: 2%, Q: 4%, P: 13%)

a: CCOC(=O)N1CCCC(N2CCC(F)(C(=O)NC3CCC3)CC2)CC1 (stereo not drawn)
b: CCOC(=O)N1CCCC(N2CCC(C(=O)NC3(C(F)(F)F)CCC3)CC2)CC1 (stereo not drawn)
c: CCOC(=O)N1CCCC(N2CCC(F)(C(=O)NCC(C)(C)C)CC2)CC1 (stereo not drawn)
Kindly order the items shown according to Emax, from the highest value down. Dear reader, please state the labels in the requested order.
a, c, b
(a: 17%, c: 9%, b: 5%)

A: CCOC(=O)N1CCCC(N2CCC(C)(C(=O)NC3(C)CCC3)CC2)CC1 (stereo not drawn)
B: CCOC(=O)N1CCCC(N2CCC(C(=O)NC3(CC)CCC3)CC2)CC1 (stereo not drawn)
Recorded Emax values differ for A and B ; which one is higher? Please respond with the label that marks your chosen entry.
B

A: CCOC(=O)N1CCCC(N2CCC(C(=O)NCC3CC3)CC2)CC1 (stereo not drawn)
B: CCOC(=O)N1CCCC(N2CCC(F)(C(=O)NC3CCCC3)CC2)CC1 (stereo not drawn)
Recorded Emax values differ for A and B ; which one is higher? Please respond with the label that marks your chosen entry.
B
(B: 12%, A: 5%)

1: CCOC(=O)N1CCCC(N2CCC(F)(C(=O)NC(C)(C)C(C)C)CC2)CC1 (stereo not drawn)
2: CCOC(=O)N1CCCC(N2CCC(C(=O)NCC3CCC3)CC2)CC1 (stereo not drawn)
Could you determine which record has the numerically smaller Emax? Candidates: 1 and 2 Please respond with the label that marks your chosen entry.
2
(2: 7%, 1: 19%)
